# assay.target: TGFBR2 (human) (UniProt P37173)
# Sequence (P37173 whole entry, looked up): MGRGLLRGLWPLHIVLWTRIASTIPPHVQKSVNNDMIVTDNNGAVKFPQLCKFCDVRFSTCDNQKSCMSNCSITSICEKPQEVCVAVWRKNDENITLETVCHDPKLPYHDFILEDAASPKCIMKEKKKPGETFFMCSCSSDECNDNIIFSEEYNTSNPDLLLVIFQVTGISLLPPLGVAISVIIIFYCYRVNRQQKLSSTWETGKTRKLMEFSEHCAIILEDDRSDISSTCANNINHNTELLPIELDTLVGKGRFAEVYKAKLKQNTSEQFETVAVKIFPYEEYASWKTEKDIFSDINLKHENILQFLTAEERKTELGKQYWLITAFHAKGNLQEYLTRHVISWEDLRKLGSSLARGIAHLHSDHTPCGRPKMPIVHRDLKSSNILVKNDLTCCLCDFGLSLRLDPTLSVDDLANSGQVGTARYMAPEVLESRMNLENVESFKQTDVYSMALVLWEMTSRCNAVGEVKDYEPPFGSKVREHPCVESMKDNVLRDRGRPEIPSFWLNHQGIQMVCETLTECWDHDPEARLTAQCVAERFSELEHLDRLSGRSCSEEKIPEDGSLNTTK
# method: KINOMEscan competition binding
# condition.info: compound 10.0 µM
quantity.measured: kinase still bound, per cent of control

# record.smiles, quantity.measured, val
rows = [
    ("COCC(=O)NC/C=C/c1ccc2ncnc(Nc3ccc(Oc4ccc(C)nc4)c(C)c3)c2c1", "kinase still bound, per cent of control", "94%"),
    ("CS(=O)(=O)N1CCN(Cc2cc3nc(-c4cccc5[nH]ncc45)nc(N4CCOCC4)c3s2)CC1", "kinase still bound, per cent of control", "100%"),
    ("CCN1CCN(C(=O)Cc2ccc(Nc3ncc(F)c(Nc4ccc(C(=O)Nc5ccccc5Cl)cc4)n3)cc2)CC1", "kinase still bound, per cent of control", "100%"),
    ("O=C1NC(=O)/C(=C/c2ccc3nccc(-c4ccncc4)c3c2)S1", "kinase still bound, per cent of control", "73%"),
    ("O=C(Nc1cccc(Nc2ncc(Br)c(NCCc3cnc[nH]3)n2)c1)N1CCCC1", "kinase still bound, per cent of control", "100%"),
]

---

Quick list: kinase still bound, per cent of control per entry.
# assay.target: MAP4K4 (human) (UniProt O95819)
# Sequence (O95819 whole entry, looked up): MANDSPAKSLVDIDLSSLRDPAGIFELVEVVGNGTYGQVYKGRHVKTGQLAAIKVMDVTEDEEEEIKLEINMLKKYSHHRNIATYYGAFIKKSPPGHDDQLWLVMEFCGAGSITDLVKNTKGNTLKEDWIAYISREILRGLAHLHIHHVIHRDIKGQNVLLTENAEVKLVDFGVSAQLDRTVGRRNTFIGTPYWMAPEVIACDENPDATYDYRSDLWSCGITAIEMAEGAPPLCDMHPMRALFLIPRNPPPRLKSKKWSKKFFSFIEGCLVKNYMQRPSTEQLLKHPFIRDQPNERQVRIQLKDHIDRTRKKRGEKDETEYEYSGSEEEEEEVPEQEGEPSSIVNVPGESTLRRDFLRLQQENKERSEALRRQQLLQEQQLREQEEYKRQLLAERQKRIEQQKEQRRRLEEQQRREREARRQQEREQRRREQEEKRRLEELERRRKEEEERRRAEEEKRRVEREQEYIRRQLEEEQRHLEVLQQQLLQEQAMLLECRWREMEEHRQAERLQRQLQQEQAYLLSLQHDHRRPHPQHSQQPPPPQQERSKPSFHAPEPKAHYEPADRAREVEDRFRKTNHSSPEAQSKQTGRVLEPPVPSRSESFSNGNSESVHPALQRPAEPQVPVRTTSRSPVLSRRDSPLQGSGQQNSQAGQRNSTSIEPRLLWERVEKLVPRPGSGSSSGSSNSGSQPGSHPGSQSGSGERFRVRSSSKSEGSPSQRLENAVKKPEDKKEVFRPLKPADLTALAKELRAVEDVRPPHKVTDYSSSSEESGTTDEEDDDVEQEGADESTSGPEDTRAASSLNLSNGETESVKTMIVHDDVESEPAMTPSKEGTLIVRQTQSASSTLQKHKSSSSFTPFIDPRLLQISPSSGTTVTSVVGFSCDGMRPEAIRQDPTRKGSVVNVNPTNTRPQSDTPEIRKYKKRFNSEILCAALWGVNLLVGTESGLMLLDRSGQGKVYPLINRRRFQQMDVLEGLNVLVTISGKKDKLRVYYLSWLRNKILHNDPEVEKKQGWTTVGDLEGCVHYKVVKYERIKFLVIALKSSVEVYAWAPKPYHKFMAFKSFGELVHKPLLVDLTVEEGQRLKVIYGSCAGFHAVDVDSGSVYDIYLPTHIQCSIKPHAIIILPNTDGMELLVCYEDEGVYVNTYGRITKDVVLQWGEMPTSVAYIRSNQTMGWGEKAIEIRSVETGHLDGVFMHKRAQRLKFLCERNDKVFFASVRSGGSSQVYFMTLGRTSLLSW
# method: KINOMEscan competition binding
# condition.info: compound 10.0 µM

# record.smiles, kinase still bound, per cent of control / %
measured = [
    ("COc1cc2ncn(-c3cc(OCc4ccccc4C(F)(F)F)c(C(N)=O)s3)c2cc1OC", 53),
    ("C=CC(=O)Nc1ccc(CN(C(=O)Nc2c(Cl)c(OC)cc(OC)c2Cl)c2cc(Nc3ccc(N4CCN(C)CC4)cc3)ncn2)cc1", 100),
    ("COCC(=O)NC/C=C/c1ccc2ncnc(Nc3ccc(Oc4ccc(C)nc4)c(C)c3)c2c1", 97),
    ("CCN(CC)CCCCNc1ncc2c(n1)N(C)C(=O)N(c1c(Cl)c(OC)cc(OC)c1Cl)C2", 100),
    ("COc1ccc(N(C(=O)Oc2c(C)cccc2C)c2ccnc(Nc3ccc(N4CCN(C)CC4)cc3)n2)c(OC)c1", 3.7),
    ("N#CCNC(=O)c1ccc(-c2ccnc(Nc3ccc(N4CCOCC4)cc3)n2)cc1", 85),
    ("Cc1n[nH]c2ccc(-c3cncc(OC[C@@H](N)Cc4c[nH]c5ccccc45)c3)cc12", 2.2),
    ("CN(C)C/C=C/C(=O)Nc1ccc(C(=O)Nc2cccc(Nc3nccc(-c4cccnc4)n3)c2)cc1", 18),
    ("CCN1CCN(C(=O)Cc2ccc(Nc3ncc(F)c(Nc4ccc(C(=O)Nc5ccccc5Cl)cc4)n3)cc2)CC1", 69),
    ("CNC(=O)c1ccc(Nc2cc(Nc3ccccc3S(=O)(=O)C(C)C)c3cc[nH]c3n2)nc1", 31),
    ("C=CC(=O)Nc1cc(-n2c(=O)ccc3cnc4ccc(-c5cn[nH]c5)cc4c32)ccc1C", 60),
    ("O=C(Nc1cccc(Nc2ncc(Br)c(NCCc3cnc[nH]3)n2)c1)N1CCCC1", 2.4),
    ("CNC(=O)c1cc(Oc2ccc(NC(=O)Nc3ccc(Cl)c(C(F)(F)F)c3)cc2)ccn1", 18),
    ("COc1cc(N2CCN(C)CC2)ccc1Nc1ncc2c(n1)N(C)c1ccccc1C(=O)N2C", 100),
    ("CS(=O)(=O)N1CCN(Cc2cc3nc(-c4cccc5[nH]ncc45)nc(N4CCOCC4)c3s2)CC1", 100),
    ("CCN(CC)CCCCNc1ncc2cc(-c3cc(OC)cc(OC)c3)c(NC(=O)NC(C)(C)C)nc2n1", 100),
    ("NC(=O)Nc1cc(-c2cccc(F)c2)sc1C(=O)N[C@@H]1CCCNC1", 0.5),
    ("O=c1cc(N2CCOCC2)oc2c(-c3cccc4c3sc3ccccc34)cccc12", 100),
    ("COc1cc2ncnc(-n3nc(-c4ccccn4)nc3N)c2cc1OC", 69),
    ("COc1cc(C(=O)N2CCC(N3CCN(C)CC3)CC2)ccc1Nc1ncc2c(n1)N(C)c1ccccc1C(=O)N2C", 85),
]
